Data provenance is paper PMC11224282.

Target: xlσ1R wild-type (Xenopus laevis)
Construct: hemagglutinin signal peptide (N); made in house; host or cells: Pichia pastoris GS115
Sequence (Q6DCU6 1-221): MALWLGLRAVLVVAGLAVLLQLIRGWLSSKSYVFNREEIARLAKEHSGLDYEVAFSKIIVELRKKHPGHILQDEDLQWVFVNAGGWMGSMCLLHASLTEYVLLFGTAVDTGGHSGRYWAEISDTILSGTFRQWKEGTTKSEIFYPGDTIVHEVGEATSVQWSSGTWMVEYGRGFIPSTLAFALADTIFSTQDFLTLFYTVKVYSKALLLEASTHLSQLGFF
Test: Microscale thermophoresis (MST) binding to xlσ1R wild-type
Settings: Source Data sheet Supplementary Table 3, wild-type, repeat 2; read-out: Kd Repeat 2
PROPERTY: Kd (nM)
Number in nM, nothing else.

Item CC(=O)[C@H]1CC[C@H]2[C@@H]3CCC4=CC(=O)CC[C@]4(C)[C@H]3CC[C@]12C has what recorded Kd? 960

----------
Target: xlσ1R wild-type (Xenopus laevis, UniProt Q6DCU6)
Construct: hemagglutinin signal peptide (N); made in house; host or cells: Pichia pastoris GS115
Sequence (Q6DCU6 1-221): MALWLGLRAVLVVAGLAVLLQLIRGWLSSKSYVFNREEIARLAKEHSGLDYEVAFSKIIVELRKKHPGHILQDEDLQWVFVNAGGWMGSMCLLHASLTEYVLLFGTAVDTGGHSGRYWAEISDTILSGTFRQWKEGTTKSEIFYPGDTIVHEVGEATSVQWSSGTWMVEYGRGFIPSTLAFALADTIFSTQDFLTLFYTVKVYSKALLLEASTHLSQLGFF
Test: Microscale thermophoresis (MST) binding to xlσ1R wild-type
Conditions: Source Data sheet Supplementary Table 3, wild-type, repeat 1; read-out: Kd Repeat 1
PROPERTY: pKd
Remember the convention: pKd equals -log10 of concentration in molar.

# get_value(readout='pKd', item= CC(=O)[C@H]1CC[C@H]2[C@@H]3CCC4=CC(=O)CC[C@]4(C)[C@H]3CC[C@]12C [progesterone] ) 6.15

----------
molecular target: xlσ1R wild-type (Xenopus laevis, UniProt Q6DCU6); construct: hemagglutinin signal peptide (N); made in house; host or cells: Pichia pastoris GS115; test: Microscale thermophoresis (MST) binding to xlσ1R wild-type; conditions: read-out: Kd Repeat 2; Source Data sheet Supplementary Table 3, wild-type, repeat 2
Counter-ions that a name gives are not always drawn.
PROPERTY: pKd
The quantity pKd is defined as the negative base-10 logarithm of the molar concentration.

// returns reported pKd for input CC12CCC3C(CC=C4CC(OS(=O)(=O)O)CCC43C)C1CCC2=O (stereo not shown) [DHEAS, dehydroepiandrosterone sulfate] 4.80

----------
biological target: xlσ1R E169A (Xenopus laevis, UniProt Q6DCU6, E169A); construct: hemagglutinin signal peptide (N); made in house; host or cells: Pichia pastoris GS115; test: Microscale thermophoresis (MST) binding to xlσ1R E169A mutant; details: read-out: Kd Repeat 3; Source Data sheet Supplementary Table 3, E169A, repeat 3
Counter-ions that a name gives are not always drawn.
PROPERTY: pKd
API: returns pKd as number; meaning -log10 of concentration in mol/L.

Returns the measured pKd for the input compound. Input: CC12CCC3C(CC=C4CC(OS(=O)(=O)O)CCC43C)C1CCC2=O (stereo not shown) [DHEAS, dehydroepiandrosterone sulfate] 3.34

----------
target: xlσ1R wild-type (Xenopus laevis, UniProt Q6DCU6); construct: hemagglutinin signal peptide (N); made in house; host or cells: Pichia pastoris GS115; test: Microscale thermophoresis (MST) binding to xlσ1R wild-type; conditions: Source Data sheet Supplementary Table 3, wild-type, repeat 3; read-out: Kd Repeat 3
PROPERTY: pKd
Just the number, please; pKd means minus log10 of the concentration in mol/L.

I'm curious: which pKd was measured for CC(=O)[C@H]1CC[C@H]2[C@@H]3CCC4=CC(=O)CC[C@]4(C)[C@H]3CC[C@]12C tested on xlσ1R wild-type (Xenopus laevis, UniProt Q6DCU6)? 5.94

----------
target: xlσ1R wild-type (Xenopus laevis, UniProt Q6DCU6); construct: hemagglutinin signal peptide (N); made in house; host or cells: Pichia pastoris GS115; experiment: Microscale thermophoresis (MST) binding to xlσ1R wild-type; settings: MST, wild-type xlσ1R, N = 3, mean (± SD); read-out: Kd (mean)
PROPERTY: Kd
State the value with its unit after it.

Notebook entry, xlσ1R wild-type (Xenopus laevis, UniProt Q6DCU6) assay: Kd of CC(=O)[C@H]1CC[C@H]2[C@@H]3CCC4=CC(=O)CC[C@]4(C)[C@H]3CC[C@]12C [progesterone] = ? 940 nM

----------
molecular target: xlσ1R E169A (Xenopus laevis, UniProt Q6DCU6, E169A); construct: hemagglutinin signal peptide (N); made in house; host or cells: Pichia pastoris GS115; test: Microscale thermophoresis (MST) binding to xlσ1R E169A mutant; settings: read-out: Kd Mean; Source Data sheet Supplementary Table 3, E169A, mean of 3
Structures can show the parent of a compound that is named as a salt.
PROPERTY: Kd (µM)
Give the value, in units of µM, as a plain number.

Recorded Kd for CC12CCC3C(CC=C4CC(OS(=O)(=O)O)CCC43C)C1CCC2=O (stereo not shown) [DHEAS, dehydroepiandrosterone sulfate] with xlσ1R E169A (Xenopus laevis, UniProt Q6DCU6, E169A), please? 456

----------
Target: xlσ1R wild-type (Xenopus laevis, UniProt Q6DCU6)
Construct: hemagglutinin signal peptide (N); made in house; host or cells: Pichia pastoris GS115
Sequence (Q6DCU6 1-221): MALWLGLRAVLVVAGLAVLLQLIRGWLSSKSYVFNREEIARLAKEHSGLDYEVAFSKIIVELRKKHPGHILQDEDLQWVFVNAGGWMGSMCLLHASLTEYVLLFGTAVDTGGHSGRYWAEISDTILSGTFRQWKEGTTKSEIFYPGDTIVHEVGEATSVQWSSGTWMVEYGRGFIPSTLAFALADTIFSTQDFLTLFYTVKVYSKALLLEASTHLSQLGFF
Test: Microscale thermophoresis (MST) binding to xlσ1R wild-type
Settings: read-out: Kd (mean); MST, wild-type xlσ1R, N = 3, mean (± SD)
Counter-ions that a name gives are not always drawn.
PROPERTY: Kd
The answer consists of two parts: a number and, after it, its unit.

For the molecule shown here, CC12CCC3C(CC=C4CC(OS(=O)(=O)O)CCC43C)C1CCC2=O (stereo not shown) [DHEAS, dehydroepiandrosterone sulfate] , give the reported Kd. 18 µM

----------
molecular target: xlσ1R wild-type (Xenopus laevis); construct: hemagglutinin signal peptide (N); made in house; host or cells: Pichia pastoris GS115; test: Microscale thermophoresis (MST) binding to xlσ1R wild-type; settings: read-out: Kd Mean; Source Data sheet Supplementary Table 3, wild-type, mean of 3
Where a name gives a salt, the structure may show the parent alone.
PROPERTY: Kd (µM)
Respond numerically; units are µM and should not be typed.

Given the entry CC12CCC3C(CC=C4CC(OS(=O)(=O)O)CCC43C)C1CCC2=O (stereo not shown) [DHEAS, dehydroepiandrosterone sulfate] , report its measured Kd. 18

----------
Molecular target: xlσ1R wild-type (Xenopus laevis, UniProt Q6DCU6)
Construct: hemagglutinin signal peptide (N); made in house; host or cells: Pichia pastoris GS115
Sequence (Q6DCU6 1-221): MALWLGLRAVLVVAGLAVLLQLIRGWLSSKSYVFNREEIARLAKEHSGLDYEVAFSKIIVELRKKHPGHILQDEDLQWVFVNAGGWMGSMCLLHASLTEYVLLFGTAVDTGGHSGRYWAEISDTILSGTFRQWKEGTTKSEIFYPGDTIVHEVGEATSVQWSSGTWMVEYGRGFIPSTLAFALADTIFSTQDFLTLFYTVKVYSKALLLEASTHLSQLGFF
Experiment: Microscale thermophoresis (MST) binding to xlσ1R wild-type
Settings: MST binding assay, xlσ1R; printed only in peer review file, OG data removed from final manuscript; read-out: Kd
PROPERTY: pKd
Expect pKd as a plain number equal to -log10 of the molar concentration.

Lab note: need pKd for CCCCCCCCO[C@@H]1O[C@H](CO)[C@@H](O)[C@H](O)[C@H]1O [OG, octyl-β-D-glucopyranoside] on xlσ1R wild-type (Xenopus laevis, UniProt Q6DCU6), anyone have it? 2.08

----------
Molecular target: xlσ1R wild-type (Xenopus laevis)
Construct: hemagglutinin signal peptide (N); made in house; host or cells: Pichia pastoris GS115
Sequence (Q6DCU6 1-221): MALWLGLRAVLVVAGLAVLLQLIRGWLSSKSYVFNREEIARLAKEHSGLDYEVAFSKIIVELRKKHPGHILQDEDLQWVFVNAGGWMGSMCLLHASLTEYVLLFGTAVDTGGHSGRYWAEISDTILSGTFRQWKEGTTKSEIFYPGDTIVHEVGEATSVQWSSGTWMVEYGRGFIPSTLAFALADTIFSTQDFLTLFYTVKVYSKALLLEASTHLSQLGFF
Assay: Microscale thermophoresis (MST) binding to xlσ1R wild-type
Settings: read-out: Kd Repeat 1; Source Data sheet Supplementary Table 3, wild-type, repeat 1
Where a name gives a salt, the structure may show the parent alone.
PROPERTY: pKd
Please report pKd as the negative decimal logarithm of the molar concentration, giving only the number.

Item CC12CCC3C(CC=C4CC(OS(=O)(=O)O)CCC43C)C1CCC2=O (stereo not shown) [DHEAS, dehydroepiandrosterone sulfate] has what recorded pKd? 4.76
